Molecular target: Caspase-7 (Homo sapiens, UniProt P55210)
Sequence (P55210 whole entry): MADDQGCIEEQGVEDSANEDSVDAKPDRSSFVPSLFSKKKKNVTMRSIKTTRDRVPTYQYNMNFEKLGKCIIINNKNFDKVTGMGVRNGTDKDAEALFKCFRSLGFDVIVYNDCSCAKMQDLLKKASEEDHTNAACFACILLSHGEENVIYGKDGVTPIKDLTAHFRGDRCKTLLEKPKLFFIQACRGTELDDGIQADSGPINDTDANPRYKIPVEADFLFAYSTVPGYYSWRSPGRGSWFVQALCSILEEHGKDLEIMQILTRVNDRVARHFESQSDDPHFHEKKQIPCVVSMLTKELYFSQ
Test: Inhibition of human recombinant caspase 7
pIC50: −log10 of the molar value.
measure_name: pIC50

Answered cases to consult:
Inquiry: Look at this compound and give its reported pIC50. `CN1C(=O)C(=C(C#N)C#N)c2cc(S(=O)(=O)N3CCC[C@H]3COc3ccccc3)ccc21`
Reply text: 6.11

Inquiry: Look at this compound and give its reported pIC50. `O=C1C(=O)N(Cc2ccc(O)cc2)c2ccc(S(=O)(=O)N3CCC[C@H]3COc3cccnc3)cc21`
Reply text: 7.93

Inquiry: Look at this compound and give its reported pIC50. `N#CC(C#N)=C1C(=O)N(Cc2ccc(Br)cc2)c2ccc(S(=O)(=O)N3CCC[C@H]3COc3ccccc3)cc21`
Reply text: 7.04

Inquiry: Look at this compound and give its reported pIC50. `O=C1C(=O)N(Cc2ccc(Br)cc2)c2ccc(S(=O)(=O)N3CCC[C@H]3COc3cccnc3)cc21`
Reply text: 8.18

Inquiry: Look at this compound and give its reported pIC50. `N#CC(C#N)=C1C(=O)N(Cc2ccccc2)c2ccc(S(=O)(=O)N3CCC[C@H]3COc3cccnc3)cc21`
Reply text: 7.48

Inquiry: Look at this compound and give its reported pIC50. `O=C1C(=O)N(Cc2ccc(Br)cc2)c2ccc(S(=O)(=O)N3CCC[C@H]3COc3ccccc3)cc21`
Reply text: 7.46

Inquiry: Look at this compound and give its reported pIC50. `COc1ccc(CN2C(=O)C(=C(C#N)C#N)c3cc(S(=O)(=O)N4CCC[C@H]4COc4cccnc4)ccc32)cc1`
Reply text: 7.53

Inquiry: Look at this compound and give its reported pIC50. `N#CC(C#N)=C1C(=O)N(Cc2ccc(O)cc2)c2ccc(S(=O)(=O)N3CCC[C@H]3COc3cccnc3)cc21`
Reply text: 7.55

[1] N#CC(C#N)=C1C(=O)N(Cc2ccc(Br)cc2)c2ccc(S(=O)(=O)N3CCC[C@H]3COc3cccnc3)cc21
[2] N#CC(C#N)=C1C(=O)N(Cc2ccccc2)c2ccc(S(=O)(=O)N3CCC[C@H]3COc3ccccc3)cc21
[3] N#CC(C#N)=C1C(=O)Nc2ccc(S(=O)(=O)N3CCC[C@H]3COc3ccccc3)cc21
[4] N#CC(C#N)=C1C(=O)N(Cc2ccc(O)cc2)c2ccc(S(=O)(=O)N3CCC[C@H]3COc3ccccc3)cc21
Inquiry: Rank entries according to their pIC50, from the largest number down. API: response body holds the labels in the requested order.
Reply text: 1, 2, 4, 3
